For each entry below, report its % mortality value.
Tested on: third instar T. ni larvae
EXPERIMENTAL_DETAILS: whole plant or invertebrate
CONDITION: contact toxicity to larvae; negative or zero values replaced by 0.1 for the index (footnote b)
Give bare numbers, in %.

Please give % mortality for each item listed below.
1. C=CCOc1ccc(OCC=C)cc1
2. CCCOc1ccc(OCCC)cc1
3. CCCOc1cccc(OCCC)c1
4. CCOc1cccc(OCC)c1

Given back:
1: 16; 2: 23; 3: 77; 4: 37

###

Test system: third instar T. ni larvae
EXPERIMENTAL_DETAILS: Leaf disk choice feeding deterrence bioassay
Type: in vivo, Trichoplusia ni
CONDITION: Trichoplusia, foliar, Table 4, 1,3-dialkoxybenzenes; feeding deterrence at 50 μg/cm^2; read-out: FD (%), mean (SE (n = 25))
MEASUREMENT_KIND: pest or weed control at 50 µg/cm2, 50 µg/cm2 (%)
Answers are plain numbers, in %.

{"MOLECULE": "CCOc1cccc(OCC)c1 [3b{2,2}, 1,3-Diethoxy benzene]", "VAL": 89.4}
{"MOLECULE": "CC(C)CCOc1cccc(OCCC(C)C)c1 [3b{5,5}, 1,3-Di-(3-methyl-butyloxy)benzene]", "VAL": -12.2}
{"MOLECULE": "CCOc1cccc(O)c1 [2b{2}, 3-Ethoxy phenol]", "VAL": -18.7}
{"MOLECULE": "COc1cccc(OC)c1 [3b{1,1}, 1,3-Dimethoxy benzene]", "VAL": 20.4}
{"MOLECULE": "CCCOc1cccc(O)c1 [2b{3}, 3-Propoxy phenol]", "VAL": 4}
{"MOLECULE": "CCCOc1cccc(OCCC)c1 [3b{3,3}, 1,3-Dipropoxy benzene]", "VAL": 96.9}
{"MOLECULE": "CC(C)CCOc1cccc(O)c1 [2b{4}, 3-(3-Methyl-butyloxy)phenol]", "VAL": -5.8}

Asked: GET /values?readout=pest or weed control at 50 µg/cm2, 50 µg/cm2&item= COc1cccc(O)c1 [2b{1}, 3-Methoxy phenol]
Given back: 44.7

###

For each entry below, report its pest or weed control at 50 µg/cm2 value.
System: third instar T. ni larvae
EXPERIMENTAL_DETAILS: Leaf disk choice feeding deterrence bioassay
Format: in vivo, Trichoplusia ni
CONDITION: Trichoplusia, foliar, feeding deterrence (FD); Table 12, non-toxic feeding deterrents; read-out: % deterrence
One number for each entry, in %.

Examples with their reported pest or weed control at 50 µg/cm2 follow.
{"MOLECULE": "CCOc1cccc(OCC)c1 [3b{2,2}, 1,3-Diethoxy benzene]", "OUTPUT_UNIT": "%", "pest or weed control at 50 µg/cm2": 89}
{"MOLECULE": "C=CCOc1ccc(OCCC)cc1 [3c{3, 6}, 1-allyloxy-4-propoxybenzene]", "OUTPUT_UNIT": "%", "pest or weed control at 50 µg/cm2": 100}
{"MOLECULE": "CCOc1ccc(OCC)cc1 [3c{2, 2}, 1,4-Diethoxy benzene]", "OUTPUT_UNIT": "%", "pest or weed control at 50 µg/cm2": 81}

Please give pest or weed control at 50 µg/cm2 for each item listed below.
1. C=CCOc1cccc(OCC=C)c1 [3b{6, 6}, 1,3-Diallyloxy benzene]
2. CCCOc1ccc(OCC)cc1 [3c{2, 3}, 4-ethoxy-1-propoxybenzene]
3. CCCCOc1ccccc1OCCC [3a{3, 4}, 1-propoxy-2-butoxybenzene]
4. C=CCOc1ccccc1OCCC [3a{3, 6}, 1-allyloxy-2-propoxybenzene]

Given back:
1: 97; 2: 100; 3: 98; 4: 96

Please give pest or weed control at 50 µg/cm2 for each item listed below.
1. C=CCOc1ccc(OCC=C)cc1 [3c{6,6}, 1,4-Diallyloxy benzene]
2. CCCOc1cccc(OCCC(C)C)c1 [3b{3, 5}, 3-propoxy-1-isopentoxybenzene]

Given back:
[97, 97]
